Every entry's value here was drawn from paper PMC6522912.

# study-target: E. coli MurD (Escherichia coli)
# Sequence (P14900 whole entry): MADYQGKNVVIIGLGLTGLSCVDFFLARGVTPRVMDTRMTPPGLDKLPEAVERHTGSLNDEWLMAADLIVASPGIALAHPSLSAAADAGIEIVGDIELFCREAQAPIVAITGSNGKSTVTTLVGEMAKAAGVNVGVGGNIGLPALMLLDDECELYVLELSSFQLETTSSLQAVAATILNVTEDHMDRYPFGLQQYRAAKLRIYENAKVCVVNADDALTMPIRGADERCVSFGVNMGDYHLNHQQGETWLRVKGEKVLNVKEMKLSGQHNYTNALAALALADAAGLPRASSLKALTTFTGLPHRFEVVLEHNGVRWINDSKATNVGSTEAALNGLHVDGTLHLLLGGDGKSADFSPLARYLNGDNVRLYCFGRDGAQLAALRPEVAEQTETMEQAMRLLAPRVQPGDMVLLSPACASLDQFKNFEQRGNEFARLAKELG
# protocol-description: biochemical
# run-conditions: 0.25 h, Table S1, PKIS screening; read-out: RA [%] at 100 µM MurD
Binarize remaining activity at 100 µM at 80%; below is Condition met, at or above is Condition not met.

Below, 4 molecules whose answers are already recorded.
CS(=O)(=O)CCNCc1nc(-c2ccc3ncnc(Nc4ccc(F)c(Cl)c4)c3c2)cs1 [GW461104A]: Condition met
COc1cc(/C=N/Nc2ncnc3c2cnn3C(C)C)ccc1O [GW644007X]: Condition not met
Fc1ccc(-c2ncn(C3CCNCC3)c2-c2ccnc(Oc3ccc4c(c3)OCO4)n2)cc1 [SB-250715]: Condition met
Fc1ccc(-c2ncn(C3CCNCC3)c2-c2ccnc(Oc3ccc(Oc4ccccc4)cc3)n2)cc1 [SB-245392]: Condition met

Hello, is remaining activity at 100 µM of the following molecule strictly smaller than 80%? CC1(C)CC(n2cnc(-c3ccc(F)cc3)c2-c2ccnc(N)n2)CC(C)(C)N1 [SB-221466]
Condition not met

====

# study-target: E. coli MurF (Escherichia coli, UniProt P11880)
# Sequence (P11880 whole entry): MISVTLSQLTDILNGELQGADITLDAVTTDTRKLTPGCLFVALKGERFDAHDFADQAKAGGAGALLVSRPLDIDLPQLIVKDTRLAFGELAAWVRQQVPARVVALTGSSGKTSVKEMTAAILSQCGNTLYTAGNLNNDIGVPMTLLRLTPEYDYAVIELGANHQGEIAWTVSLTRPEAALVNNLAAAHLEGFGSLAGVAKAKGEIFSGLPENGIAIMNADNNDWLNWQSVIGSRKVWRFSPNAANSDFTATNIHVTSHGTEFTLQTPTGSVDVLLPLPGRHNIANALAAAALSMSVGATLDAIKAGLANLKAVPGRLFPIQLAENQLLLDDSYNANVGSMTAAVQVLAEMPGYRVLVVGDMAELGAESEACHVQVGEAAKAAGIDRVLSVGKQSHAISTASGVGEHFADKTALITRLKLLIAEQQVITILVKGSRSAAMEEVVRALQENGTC
# protocol-description: biochemical
# run-conditions: 0.25 h, Table S1, PKIS screening; read-out: RA [%] at 100 µM MurF
result-type: remaining activity at 100 µM (%)
Kindly provide the numeric value in % only, without the unit symbol.

NC(=O)c1cc(-c2ccc(F)cc2)cc(-c2ccncc2)c1N [GSK620503A]: 80
Fc1ccc(-c2cc(-c3c[nH]nc3-c3ccccn3)ccn2)cc1 [GW680975X]: 96
c1ccc(COc2ccc(Nc3ncnc4ccc(-c5ccco5)cc34)cc2)cc1 [GW284372X]: 100
CCCN(CCS(C)(=O)=O)Cc1ccc(-c2ccc3ncnc(Nc4ccc(OCc5cccc(F)c5)c(Cl)c4)c3c2)o1 [GW621823A]: 96
COc1cc(C=NNc2ncnc3c2cnn3Cc2ccccc2)ccc1O [GW643971X]: 25
COc1cc2ncnc(Nc3ccc(C)c(O)c3)c2cc1OC [GW410563A]: 100

Let us examine a further case.
Given the molecule CN(C)c1cc2c(Nc3ccc4nc(Cc5ccccc5)[nH]c4c3)ncnc2cn1 [GW301888X] , what is its reported remaining activity at 100 µM?
75

====

// IC50 lookup, one value per entry
# study-target: E. coli MurC (Escherichia coli, UniProt P17952)
# Sequence (P17952 whole entry): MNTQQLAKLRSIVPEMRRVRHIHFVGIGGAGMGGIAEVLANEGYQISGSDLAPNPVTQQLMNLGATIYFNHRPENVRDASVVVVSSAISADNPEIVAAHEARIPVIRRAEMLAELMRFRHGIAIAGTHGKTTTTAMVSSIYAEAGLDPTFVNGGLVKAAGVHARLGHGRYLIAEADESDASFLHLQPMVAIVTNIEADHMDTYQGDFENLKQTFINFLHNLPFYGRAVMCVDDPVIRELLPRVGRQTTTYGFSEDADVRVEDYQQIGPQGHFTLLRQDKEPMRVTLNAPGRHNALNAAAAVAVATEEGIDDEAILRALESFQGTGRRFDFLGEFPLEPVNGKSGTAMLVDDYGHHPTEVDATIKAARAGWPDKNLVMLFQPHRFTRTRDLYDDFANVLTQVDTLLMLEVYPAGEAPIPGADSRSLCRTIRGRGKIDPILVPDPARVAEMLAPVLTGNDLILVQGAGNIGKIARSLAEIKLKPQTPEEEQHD
# protocol-description: Malachite green inhibition assay, MurC
# Type: biochemical
# run-conditions: Table 1; read-out: MurC IC50
Kindly report the value followed by its unit.

As a guide, the following entries are already answered.
COc1ccc(-c2nn3ncccc3c2-c2ccnc(Nc3cccc(C(F)(F)F)c3)n2)cc1 [Compound 3]: 74 µM
N#Cc1ccc(Oc2nccc(-c3c(-c4ccc(F)cc4)ncn3C3CCNCC3)n2)cc1 [Compound 4]: 90 µM
CCCN1CCCC(c2ccc(Nc3nc(Nc4cc(F)ccc4C(N)=O)c4cc[nH]c4n3)c(OC)c2)C1 (centres unmarked) [Compound 5]: 62 µM
Cc1cc(-c2ccco2)cc(C)c1/C=C/c1cncc(-c2nn[nH]n2)c1 [Compound 1]: 368 µM

Proceed to the following item.
Data request, read-out IC50, for Nc1ccc(C#Cc2cncnc2Nc2ccc(OCc3cccc(F)c3)c(Cl)c2)cc1 [Compound 2]
62 µM

====

# study-target: E. coli MurC (Escherichia coli)
# protocol-description: Malachite green inhibition assay, MurC
# Type: biochemical
# run-conditions: 0.25 h, Table S1, PKIS screening; read-out: RA [%] at 100 µM MurC
Each entry below carries its recorded remaining activity at 100 µM.
Just the number in %, nothing appended.

Use these answered entries as a reference point.
Cc1nnc(-c2ccc(C)c(-c3ccc(C(=O)NCc4ccc(Cl)cc4)cc3)c2)o1 [GW708893X]: 100
c1ccc(COc2ccc(Nc3ncnc4ccc(-c5ccco5)cc34)cc2)cc1 [GW284372X]: 56
NS(=O)(=O)c1ccc(N/N=C2\C(=O)Nc3ccc4ncccc4c32)cc1 [GW305178X]: 52
NS(=O)(=O)c1ccc(N/C=C2\C(=O)Nc3ccc4ncsc4c32)cc1 [GW297361X]: 107
CCc1nccc2c1nc(-c1nonc1N)n2CC: 75

remaining activity at 100 µM lookup needed for COc1cc2c(cc1Nc1nc(Nc3cccc(F)c3C(N)=O)c3cc[nH]c3n1)N(C(=O)CN1CCN(C(C)C)CC1)CC2 [GSK1751853A] , thanks.
55

Which remaining activity at 100 µM is listed for COc1cc(N2CCN(C(C)C)CC2)ccc1Nc1nc(Nc2ccc(F)cc2C(=O)NC[C@@H](O)CO)c2cc[nH]c2n1 [GSK1392956A] ?
65

GET /values?readout=remaining activity at 100 µM&item= COc1cccc(-n2ncc3c(N/N=C/c4ccncc4)ncnc32)c1 [GW784752X]
76
